The measurements presented in this section are drawn from ChEMBL document CHEMBL4480373.

# measurement_target: Neuropilin-1 (Homo sapiens, UniProt O14786)
# Sequence (O14786 whole entry): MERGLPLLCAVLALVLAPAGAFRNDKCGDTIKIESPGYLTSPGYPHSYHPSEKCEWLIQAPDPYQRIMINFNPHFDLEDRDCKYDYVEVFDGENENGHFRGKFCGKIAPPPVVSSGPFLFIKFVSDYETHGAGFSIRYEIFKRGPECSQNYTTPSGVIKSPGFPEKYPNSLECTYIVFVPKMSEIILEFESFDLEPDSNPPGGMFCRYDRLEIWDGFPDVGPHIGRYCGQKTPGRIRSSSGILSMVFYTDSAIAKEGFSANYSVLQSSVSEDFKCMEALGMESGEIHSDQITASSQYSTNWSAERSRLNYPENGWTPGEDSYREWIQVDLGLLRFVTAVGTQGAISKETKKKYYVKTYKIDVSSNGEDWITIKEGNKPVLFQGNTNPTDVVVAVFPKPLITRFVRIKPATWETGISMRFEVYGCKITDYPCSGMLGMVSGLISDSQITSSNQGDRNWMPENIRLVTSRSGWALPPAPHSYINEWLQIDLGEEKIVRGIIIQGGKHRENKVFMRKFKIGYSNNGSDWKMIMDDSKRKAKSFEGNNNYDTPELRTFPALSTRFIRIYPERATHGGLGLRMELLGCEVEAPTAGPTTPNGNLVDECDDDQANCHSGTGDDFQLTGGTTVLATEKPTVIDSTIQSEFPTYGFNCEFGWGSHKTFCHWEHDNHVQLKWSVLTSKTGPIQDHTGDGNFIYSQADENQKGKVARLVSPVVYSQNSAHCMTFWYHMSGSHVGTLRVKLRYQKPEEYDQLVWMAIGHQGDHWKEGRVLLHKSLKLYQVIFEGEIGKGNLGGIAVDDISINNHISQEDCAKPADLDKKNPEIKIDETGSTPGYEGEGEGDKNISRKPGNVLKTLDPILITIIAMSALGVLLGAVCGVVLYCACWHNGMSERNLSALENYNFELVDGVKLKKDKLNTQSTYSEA
# assay_procedure: Inhibition of human biotinylated VEGF-A165 binding to recombinant human NRP1 receptor at 5 uM after 2 hrs by chemiluminescence analysis relative to control
Square brackets hold non-standard residues; d marks the D form. Peptide text beside a SMILES is read from it. Oic = O=C(O)[C@@H]1C[C@@H]2CCCC[C@@H]2N1; hArg = N=C(N)NCCCC[C@H](N)C(=O)O; Dab = NCC[C@H](N)C(=O)O

[
  {
    "compound": "N=C(N)NCCCC[C@H](N)C(=O)NCCCC[C@H](N)C(=O)N[C@@H](CCN)C(=O)N1[C@H](C(=O)N[C@@H](CCCNC(=N)N)C(=O)O)C[C@@H]2CCCC[C@@H]21 (H-K(hArg)[Dab][Oic]R-OH)",
    "measurement_target": "Neuropilin-1 (Homo sapiens, UniProt O14786)",
    "inhibition / %": 52.3
  },
  {
    "compound": "N=C(N)NCCCC[C@H](N)C(=O)NCCCC[C@H](N)C(=O)N1[C@H](C(=O)N2[C@H](C(=O)N[C@@H](CCCNC(=N)N)C(=O)O)C[C@@H]3CCCC[C@@H]32)C[C@@H]2CCCC[C@@H]21 (H-K(hArg)[Oic][Oic]R-OH)",
    "measurement_target": "Neuropilin-1 (Homo sapiens, UniProt O14786)",
    "inhibition / %": 47.8
  }
]
